Data provenance: ChEMBL document CHEMBL1134080

experimental-target: Epidermal growth factor receptor and ErbB2 (HER1 and HER2) (Homo sapiens) (UniProt P04626+P00533)
method: Selectivity for EGF receptor and c-erbB-2
Type: protein assay
measurement-label: Selectivity

{"item-smiles": "Nc1cc2c(Nc3ccc4c(cnn4Cc4ccccc4)c3)ncnc2cn1", "bound-operator": ">", "measured-value": 5.6}
{"item-smiles": "c1ccc(Cn2cnc3ccc(Nc4ncnc5ccccc45)cc32)cc1", "bound-operator": "=", "measured-value": 27}
{"item-smiles": "COc1cc2ncnc(Nc3ccc4nn(Cc5ccccc5)cc4c3)c2cc1OC", "bound-operator": "=", "measured-value": 8.9}
{"item-smiles": "c1ccc(Cc2nc3ccc(Nc4ncnc5ccccc45)cc3[nH]2)cc1", "bound-operator": "=", "measured-value": 36}
{"item-smiles": "Nc1cc2c(Nc3ccc4[nH]c(Cc5ccccc5)nc4c3)ncnc2cn1", "bound-operator": "=", "measured-value": 18.5}
{"item-smiles": "c1ccc(Cn2cnc3cc(Nc4ncnc5ccccc45)ccc32)cc1", "bound-operator": "=", "measured-value": 39}
{"item-smiles": "COc1cc2ncnc(Nc3ccc4nc(Cc5ccccc5)[nH]c4c3)c2cc1OC", "bound-operator": "=", "measured-value": 19}
{"item-smiles": "COc1cc2ncnc(Nc3ccc4c(cnn4Cc4ccccc4)c3)c2cc1OC", "bound-operator": ">", "measured-value": 5.6}
{"item-smiles": "COc1cc2ncnc(Nc3ccc4c(ccn4Cc4ccccc4)c3)c2cc1OC", "bound-operator": "=", "measured-value": 12.5}

###

method: Bioavailability was measured in mouse
Format: ADME, organism-based
conditions-used: in vivo
measurement-label: bioavailability

{"molecule": "CN(C)c1cc2c(Nc3ccc4c(cnn4Cc4ccccc4)c3)ncnc2cn1 [GW282974X]", "measurement-label": "bioavailability", "measured-value": "> 23%"}

###

method: Half-life was measured in dog
Type: ADME, organism-based, Canis lupus familiaris
conditions-used: in vivo

{"compound": "CN(C)c1cc2c(Nc3ccc4c(cnn4Cc4ccccc4)c3)ncnc2cn1 [GW282974X]", "half-life [min]": 44}

###

method: Half-life was measured in rat
Format: ADME, organism-based
conditions-used: in vivo
measurement-label: half-life

{"molecule": "CN(C)c1cc2c(Nc3ccc4c(cnn4Cc4ccccc4)c3)ncnc2cn1 [GW282974X]", "measurement-label": "half-life", "measured-value": "18 min"}

###

method: Pharmacokinetic property (Plasma clearance) was measured in mouse
Type: ADME, organism-based
measurement-label: clearance

{"compound": "CN(C)c1cc2c(Nc3ccc4c(cnn4Cc4ccccc4)c3)ncnc2cn1 [GW282974X]", "measurement-label": "clearance", "measured-value": "> 27 mL/min/kg"}

###

method: Pharmacokinetic property (Plasma clearance) was measured in rat
Assay type: ADME, organism-based

{"molecule": "CN(C)c1cc2c(Nc3ccc4c(cnn4Cc4ccccc4)c3)ncnc2cn1 [GW282974X]", "clearance, mL/min/kg": 19}

###

method: Bioavailability in dog
Format: ADME, organism-based, Canis lupus familiaris
conditions-used: in vivo

{"compound": "CN(C)c1cc2c(Nc3ccc4c(cnn4Cc4ccccc4)c3)ncnc2cn1 [GW282974X]", "bioavailability (%)": 82}

###

method: Half-life was measured in mouse
Format: ADME, organism-based
conditions-used: in vivo

{"compound": "CN(C)c1cc2c(Nc3ccc4c(cnn4Cc4ccccc4)c3)ncnc2cn1 [GW282974X]", "value-units": "min", "half-life": 20}

###

experimental-target: RAF proto-oncogene serine/threonine-protein kinase (Homo sapiens)
Sequence (P04049 whole entry): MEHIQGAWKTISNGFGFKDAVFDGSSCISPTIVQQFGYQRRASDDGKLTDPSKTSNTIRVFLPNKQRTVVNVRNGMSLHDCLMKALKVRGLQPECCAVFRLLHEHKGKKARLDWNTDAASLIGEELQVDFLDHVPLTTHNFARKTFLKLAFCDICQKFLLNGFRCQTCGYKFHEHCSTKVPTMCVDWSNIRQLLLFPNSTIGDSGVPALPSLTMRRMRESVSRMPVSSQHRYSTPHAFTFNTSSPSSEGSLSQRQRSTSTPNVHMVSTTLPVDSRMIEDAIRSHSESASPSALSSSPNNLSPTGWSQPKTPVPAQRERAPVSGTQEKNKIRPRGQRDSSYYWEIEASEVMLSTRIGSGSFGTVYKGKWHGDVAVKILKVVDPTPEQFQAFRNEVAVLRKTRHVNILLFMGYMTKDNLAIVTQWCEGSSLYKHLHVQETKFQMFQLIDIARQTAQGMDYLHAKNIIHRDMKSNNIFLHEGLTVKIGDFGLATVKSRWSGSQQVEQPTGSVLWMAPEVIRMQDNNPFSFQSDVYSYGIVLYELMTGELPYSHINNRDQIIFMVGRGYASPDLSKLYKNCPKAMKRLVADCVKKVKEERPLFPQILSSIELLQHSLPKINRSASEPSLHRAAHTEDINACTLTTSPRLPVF

{"compound": "CN(C)c1cc2c(Nc3ccc4c(cnn4Cc4ccccc4)c3)ncnc2cn1 [GW282974X]", "value-units": "µM", "IC50": 49}

###

experimental-target: Proto-oncogene tyrosine-protein kinase Src (Homo sapiens, UniProt P12931)
Sequence (P12931 2-536 limits assumed): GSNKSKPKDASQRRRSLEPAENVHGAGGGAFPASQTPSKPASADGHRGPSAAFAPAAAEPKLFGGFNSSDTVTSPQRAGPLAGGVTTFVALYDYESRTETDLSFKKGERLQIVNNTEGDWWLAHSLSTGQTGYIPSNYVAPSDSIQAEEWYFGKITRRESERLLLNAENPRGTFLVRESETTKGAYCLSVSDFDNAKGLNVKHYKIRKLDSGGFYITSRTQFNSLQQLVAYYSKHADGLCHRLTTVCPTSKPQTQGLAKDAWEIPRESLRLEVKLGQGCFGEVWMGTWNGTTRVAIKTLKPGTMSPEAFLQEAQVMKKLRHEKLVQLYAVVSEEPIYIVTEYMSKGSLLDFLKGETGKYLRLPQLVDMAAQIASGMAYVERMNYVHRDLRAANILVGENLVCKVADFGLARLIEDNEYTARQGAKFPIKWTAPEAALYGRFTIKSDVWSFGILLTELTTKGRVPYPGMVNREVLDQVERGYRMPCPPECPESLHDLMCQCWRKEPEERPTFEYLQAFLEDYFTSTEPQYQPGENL

{"compound": "CN(C)c1cc2c(Nc3ccc4c(cnn4Cc4ccccc4)c3)ncnc2cn1 [GW282974X]", "IC50": "> 50 µM"}

###

Test system: HB4a
method: Inhibition of RAS overexpressing HB4a.R4.2 cell proliferation
Type: functional, cell-based
conditions-used: Homo sapiens
pIC50: −log10 of the molar value.
measurement-label: pIC50

{"compound": "CN(C)c1cc2c(Nc3ccc4c(cnn4Cc4ccccc4)c3)ncnc2cn1 [GW282974X]", "measurement-label": "pIC50", "measured-value": 4.52}

###

pIC50: −log10 of the molar value.
Here we list molecules with their recorded pIC50 when tested on Receptor tyrosine-protein kinase erbB-2 (Rattus norvegicus, UniProt P06494).
Sequence (P06494 whole entry): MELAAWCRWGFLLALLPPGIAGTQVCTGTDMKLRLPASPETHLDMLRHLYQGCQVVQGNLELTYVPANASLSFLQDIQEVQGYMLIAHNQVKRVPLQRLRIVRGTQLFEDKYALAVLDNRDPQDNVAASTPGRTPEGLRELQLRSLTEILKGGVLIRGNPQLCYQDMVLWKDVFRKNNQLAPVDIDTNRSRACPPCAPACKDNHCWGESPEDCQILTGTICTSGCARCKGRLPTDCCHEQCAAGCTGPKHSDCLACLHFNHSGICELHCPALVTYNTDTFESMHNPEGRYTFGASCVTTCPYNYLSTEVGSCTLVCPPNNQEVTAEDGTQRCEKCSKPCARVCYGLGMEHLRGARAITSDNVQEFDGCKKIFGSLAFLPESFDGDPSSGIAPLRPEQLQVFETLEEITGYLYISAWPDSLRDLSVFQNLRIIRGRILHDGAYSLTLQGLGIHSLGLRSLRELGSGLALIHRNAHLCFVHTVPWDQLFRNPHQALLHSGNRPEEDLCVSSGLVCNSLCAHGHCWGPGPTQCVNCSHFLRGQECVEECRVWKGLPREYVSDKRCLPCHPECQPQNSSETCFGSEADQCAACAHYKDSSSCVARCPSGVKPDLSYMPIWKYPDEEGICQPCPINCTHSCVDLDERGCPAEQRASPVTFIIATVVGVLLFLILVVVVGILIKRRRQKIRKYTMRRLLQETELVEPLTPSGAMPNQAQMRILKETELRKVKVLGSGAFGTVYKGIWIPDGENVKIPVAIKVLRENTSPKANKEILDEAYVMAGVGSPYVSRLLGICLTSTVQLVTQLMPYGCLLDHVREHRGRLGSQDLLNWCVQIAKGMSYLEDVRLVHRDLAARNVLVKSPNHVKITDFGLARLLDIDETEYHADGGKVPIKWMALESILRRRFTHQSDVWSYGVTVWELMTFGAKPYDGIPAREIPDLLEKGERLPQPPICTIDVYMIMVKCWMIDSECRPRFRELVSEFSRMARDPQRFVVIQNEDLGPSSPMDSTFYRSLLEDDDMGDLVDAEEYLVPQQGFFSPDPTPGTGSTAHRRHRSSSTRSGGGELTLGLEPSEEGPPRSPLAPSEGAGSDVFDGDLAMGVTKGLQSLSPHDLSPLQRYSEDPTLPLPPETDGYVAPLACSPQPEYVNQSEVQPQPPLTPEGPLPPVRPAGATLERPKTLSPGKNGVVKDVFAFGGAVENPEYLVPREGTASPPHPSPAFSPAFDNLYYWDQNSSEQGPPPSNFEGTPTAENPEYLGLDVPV
measurement-label: pIC50

{"molecule": "Nc1cc2c(Nc3ccc4c(cnn4Cc4ccccc4)c3)ncnc2cn1", "measurement-label": "pIC50", "measured-value": 7.57}
{"molecule": "CN(C)c1cc2c(Nc3ccc4c(cnn4Cc4ccccc4)c3)ncnc2cn1 [GW282974X]", "measurement-label": "pIC50", "measured-value": 7.74}
{"molecule": "c1ccc(Cn2cnc3ccc(Nc4ncnc5ccccc45)cc32)cc1", "measurement-label": "pIC50", "measured-value": 5.36}
{"molecule": "c1ccc(Cn2ccc3cc(Nc4ncnc5ccccc45)ccc32)cc1", "measurement-label": "pIC50", "measured-value": 7.05}
{"molecule": "COc1cc2ncnc(Nc3ccc4c(ccn4Cc4ccccc4)c3)c2cc1OC", "measurement-label": "pIC50", "measured-value": 7.31}

###

method: Bioavailability was measured in rat
Type: ADME, organism-based
conditions-used: in vivo
measurement-label: bioavailability (%)

{"compound": "CN(C)c1cc2c(Nc3ccc4c(cnn4Cc4ccccc4)c3)ncnc2cn1 [GW282974X]", "measurement-label": "bioavailability", "measured-value": 24}
